# RUN_CONDITIONS: in n-butanol, 323.15 K
PROPERTY: solubility (mole fraction)
Respond with the number and no other words.

[ask] Please report the measured solubility (mole fraction) for O=c1[nH]cc(F)c(=O)[nH]1
[reply] 0.0031

----------
# RUN_CONDITIONS: in acetic acid, 293.15 K
PROPERTY: solubility (mole fraction)
Respond with the number and no other words.

[ask] Please report the measured solubility (mole fraction) for O=c1[nH]cc(F)c(=O)[nH]1
[reply] 0.000592

----------
# RUN_CONDITIONS: in isobutanol, 323.15 K
PROPERTY: solubility (mole fraction)
Respond with the number and no other words.

[ask] Please report the measured solubility (mole fraction) for O=c1[nH]cc(F)c(=O)[nH]1
[reply] 0.00261

These entries and their values trace back to BigSolDB 2.1.
